- assay: sensitizers of A549 cells to miR-34 induction, primary screen, imaging, A549 dox-inducible miR-34, nuclei and caspase counts (AID 1347080)
- measurement parameters: A549 miR-34 inducible, Hoechst nuclei count, 48 h; measured here: total cells with miR-34 induction; stronger effect = lower value
The label is y for cell count below 9000 and n for cell count equal to or exceeding 9000.

- compound: "C[C@]12CCC(=O)C(O)=C1CC[C@@H]1[C@H]2CC[C@]2(C)C(=O)CC[C@@H]12"
  cat: "y"
- compound: "CCCCCCC(C)(C)c1ccc([C@@H]2C[C@H](O)CC[C@H]2CCCO)c(O)c1"
  cat: "y"
- compound: "COc1ccc2c(c1O)-c1c(OC)c(OC)cc3c1[C@H](C2)N(C)CC3"
  cat: "n"
- compound: "CC(C)Oc1cccnc1N(C)C1CCN(Cc2ccccc2)CC1"
  cat: "y"
- compound: "COC(=O)[C@@]1(O)CC2OC1(C)n1c3ccccc3c3c4c(c5c6ccccc6n2c5c31)C(=O)NC4 (some centres undefined)"
  cat: "y"
- compound: "CCN1C[C@@]2(COC)C3[C@@H](OC)[C@H]4[C@@H]1[C@@]3(C1C[C@@]3(O)[C@H](OC(=O)c5ccccc5)C1[C@]4(OC(C)=O)[C@@H](O)[C@H]3OC)[C@@H](OC)C[C@H]2O (some centres undefined)"
  cat: "y"
- compound: "CC1CNCCc2ccc(Cl)cc21 (centres undefined)"
  cat: "y"
- compound: "CCCCCCCC/C=C\\CCCCCCCC(=O)N[C@H](C)CO"
  cat: "y"
- compound: "O=C1C[C@@H]2OCC=C3CN4CC[C@]56c7ccccc7N1[C@H]5[C@H]2[C@H]3C[C@H]46"
  cat: "n"

====

- assay: differential killing of epithelial or mesenchymal cells, primary screen, imaging, PC-3E GFP, TEM4-18 mCherry, co-culture (AID 1345086);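 note: cells exposed to compound for 72 h before imaging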
- measurement parameters: imaging cell counts, measured here: mesenchymal TEM4-18 mCherry cell survival, at 1 µM
# binarize normalised cell number: threshold 1 inclusive, high side true (1), low side false (0)

- compound: "OC[C@@H]1CCCN2CCCC[C@H]12"
  cat: "false (0)"
- compound: "C[N+]1(C)CCc2cc3c(cc2[C@H]1C1OC(=O)c2c1ccc1c2OCO1)OCO3 (stereo partly drawn)"
  cat: "true (1)"
- compound: "COc1ccc(/C=C/c2cc(O)cc(O)c2)cc1"
  cat: "true (1)"
- compound: "CC(C)(C)NCC(O)c1cc(Cl)c(N)c(Cl)c1 (stereo not drawn)"
  cat: "true (1)"
- compound: "Cc1ncc(C[n+]2csc(CCO)c2C)c(=O)[nH]1"
  cat: "true (1)"
- compound: "CC1(C)C(=O)C=C[C@@]2(C)C1C[C@@H](O)[C@]1(C)C2CC[C@@]2(C)[C@H](c3ccoc3)OC(=O)[C@H]3O[C@]321 (stereo partly drawn)"
  cat: "false (0)"
- compound: "O=C1C2CC=CCC2C(=O)N1SC(Cl)(Cl)Cl (stereo not drawn)"
  cat: "true (1)"
- compound: "CCOC(=O)CC(SP(=S)(OC)OC)C(=O)OCC (stereo not drawn)"
  cat: "true (1)"
- compound: "COc1ccc(Cc2nccc3cc(OC)c(OC)cc23)cc1OC"
  cat: "false (0)"
- compound: "O=C1NCC[C@H]1O"
  cat: "true (1)"
- compound: "C[N+](C)(C)CC(=O)[O-]"
  cat: "true (1)"

====

- System: Aerobactin synthetase IucA (Klebsiella pneumoniae)
- assay: IucA aerobactin synthetase inhibitors, biochemical, Tocris library, absorbance (AID 1345561);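 note: 100% = enzyme without compound and 0% = no enzyme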
- measurement parameters: purified IucA enzyme assay, absorbance (OD) read-out; stronger effect = lower value; concentration not given here

- compound: "O=Cc1cn(Cc2ccc(Cl)cc2)c2ccccc12"
  unit spec: "%"
  remaining activity: 119
- compound: "O=C1NC(=O)c2c1c1c3ccccc3n3c1c1c2c2ccccc2n1C1CCC3O1"
  unit spec: "%"
  remaining activity: 103
- compound: "Oc1ccc2c3c1O[C@H]1c4[nH]c5c(c4C[C@@]4(O)[C@@H](C2)N(CC2CC2)CC[C@]314)C[C@@]1(O)[C@H]2Cc3ccc(O)c4c3[C@@]1(CCN2CC1CC1)[C@H]5O4"
  unit spec: "%"
  remaining activity: 103
- compound: "N#CC(C#N)=Cc1ccc(O)c(O)c1"
  unit spec: "%"
  remaining activity: 122
- compound: "O=C(N[C@H]1CN2CCC1CC2)c1ccc(Cl)cc1"
  unit spec: "%"
  remaining activity: 93.4
- compound: "Fc1ccc(C(OCCN2CCN(C/C=C/c3ccccc3)CC2)c2ccc(F)cc2)cc1"
  unit spec: "%"
  remaining activity: 116
- compound: "c1ccc2c(c1)OCC(C1=NCCN1)O2 (stereo not given)"
  unit spec: "%"
  remaining activity: 99.1
- compound: "CC1=C(O)C(=O)[C@@H]2O[C@@H]2C1=O"
  unit spec: "%"
  remaining activity: 113
- compound: "C[C@H](NC[C@H](O)CP(=O)(O)CC1CCCCC1)c1ccc(Cl)c(Cl)c1"
  unit spec: "%"
  remaining activity: 121
- compound: "O=c1[nH]c2ccccc2n1C1CCN(CCCC(c2ccc(F)cc2)c2ccc(F)cc2)CC1"
  unit spec: "%"
  remaining activity: 106

====

- system under test: Huntingtin (Homo sapiens)
- assay: inhibitors of mutant Htt aggregation in vitro, dose response, QA1 (AID 1584)
- measurement parameters: in vitro mutant huntingtin aggregation assay; confirmation test; at 10 µM; stronger effect = lower value
Results filed as inconclusive are left out.
Listed below: aggregation ratio values for each entry.
readout: aggregation ratio

- compound: "C[n+]1cc2c3c(ccc2c2ccc4cc5c(cc4c21)OCO5)OCO3"
  value measured: 0.44
- compound: "CC(C)=CCCC1(C)C=Cc2c(O)c3c(c(CC=C(C)C)c2O1)OC12C(=CC4CC1C(C)(C)OC2(C/C=C(/C)C(=O)O)C4=O)C3=O (centres undefined)"
  value measured: 0.274
- compound: "C[C@@]1(C(=O)O)CC[C@]2(C)CC[C@]3(C)C4=CC=C5C=C(O)C(=O)C=C5[C@]4(C)CC[C@@]3(C)[C@@H]2C1"
  value measured: 0.487
- compound: "Cc1cc2c(C(C)C)c(O)c(O)c(C=O)c2c(O)c1-c1c(C)cc2c(C(C)C)c(O)c(O)c(C=O)c2c1O"
  value measured: 0.119

====

Listed below: activity remaining values for each entry.
- Tested on: Aerobactin synthetase IucA (Klebsiella pneumoniae hvKP1)
- assay: Biochemical IucA enzyme inhibition primary screen of the Spectrum library (AID 1346200);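 note: 100% = wells without compound and 0% = wells lacking enzyme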
- measurement parameters: malachite green pyrophosphate, A620, at 8 µM, stronger effect = lower value

- compound: "COc1ccc2cc([C@H](C)C(=O)O)ccc2c1"
  activity remaining, %: 101
- compound: "CC1(C)C2CC(=O)[C@]3(C)C(CC[C@@]4(C)[C@H](c5ccoc5)OC(=O)[C@H]5O[C@]543)[C@@]2(C)C(=O)C[C@H]1O (stereo not given in full)"
  activity remaining, %: 109
- compound: "CN1CCN(C(=O)O[C@H]2c3nccnc3C(=O)N2c2ccc(Cl)cn2)CC1"
  activity remaining, %: 110
- compound: "O=C(OOC(=O)c1ccccc1)c1ccccc1"
  activity remaining, %: 113
- compound: "O=C(O)/C=C/c1ccc(O)c(O)c1"
  activity remaining, %: 101
- compound: "CC(=O)[C@@]1(O)CCC2C3C=C(Cl)C4=CC(=O)[C@@H]5CC5[C@]4(C)C3CC[C@@]21C (stereo not given in full)"
  activity remaining, %: 105
- compound: "CC(=O)Oc1ccc2c(c1C(C)C)CCC1C(C)(C)CCC[C@]21C (stereo not given in full)"
  activity remaining, %: 97.3
- compound: "CCCCNC(=O)NS(=O)(=O)c1ccc(C)cc1"
  activity remaining, %: 120
- compound: "CC(=O)O[C@]1(C(C)=O)CCC2C3C[C@H](C)C4=CC(=O)CC[C@]4(C)C3CC[C@@]21C (stereo not given in full)"
  activity remaining, %: 95.7
- compound: "CO/N=C(/C(=O)NC1C(=O)N2C(C(=O)O)=C(COC(N)=O)CSC12)c1ccco1 (stereo not given)"
  activity remaining, %: 92.5
- compound: "COc1ccc([C@@H]2CC(=O)c3c(O)cc(O)cc3O2)cc1O"
  activity remaining, %: 115
- compound: "CCCN1C[C@H](CSC)C[C@@H]2c3cccc4[nH]cc(c34)C[C@H]21"
  activity remaining, %: 120
- compound: "NC[C@@H]1O[C@H](O[C@@H]2[C@@H](CO)OC(O[C@@H]3[C@@H](O)[C@H](N)C[C@H](N)[C@H]3O[C@H]3O[C@H](CO)[C@@H](O)[C@H](O)[C@H]3N)[C@@H]2O)[C@H](N)[C@@H](O)[C@@H]1O (stereo not given in full)"
  activity remaining, %: 97.1
- compound: "CC(Cc1cccc(C(F)(F)F)c1)NCCOC(=O)c1ccccc1 (stereo not given)"
  activity remaining, %: 98.2
- compound: "CC1=C(CCC(=O)O)c2cc3nc(cc4[nH]c(cc5[nH]c(cc1n2)c(C)c5C(C)O)c(C)c4C(C)O)C(C)=C3CCC(=O)O (stereo not given)"
  activity remaining, %: 107
- compound: "CC(C)c1c(O)c(-c2cc3c(c(C(C)C)c2O)CCC2C(C)(C)CCC[C@]32C)cc2c1CCC1C(C)(C)CCC[C@]21C (stereo not given in full)"
  activity remaining, %: 102
- compound: "CCCCOc1cc(CC2CNC(=O)N2)ccc1OC (stereo not given)"
  activity remaining, %: 115
- compound: "Nc1ccc([As](=O)(O)O)cc1"
  activity remaining, %: 117
- compound: "COC(C)(C)CCC[C@H](C)C/C=C/C(C)=C/C(=O)OC(C)C"
  activity remaining, %: 109
- compound: "COc1ccc([C@H]2COc3c(ccc(O)c3OC)C2)c(OC)c1O"
  activity remaining, %: 89.5
- compound: "CN(C)CCOC(c1ccc(Cl)cc1)c1ccccn1 (stereo not given)"
  activity remaining, %: 115
- compound: "CNC(=O)N(C)c1nnc(C(C)(C)C)s1"
  activity remaining, %: 98
- compound: "Nc1c2ccccc2nc2ccccc12"
  activity remaining, %: 118
- compound: "O=C(O)c1ccc(S(=O)(=O)N(Cl)Cl)cc1"
  activity remaining, %: 113
- compound: "CCCCCCCCCCC[C@@H](C[C@H]1OC(=O)[C@H]1CCCCCC)OC(=O)[C@@H](CC(C)C)NC=O"
  activity remaining, %: 112
- compound: "O=C(CCCN1CCC(O)(c2ccc(Cl)cc2)CC1)c1ccc(F)cc1"
  activity remaining, %: 117
- compound: "CCN(CC)CCOC(=O)C1(C2CCCCC2)CCCCC1"
  activity remaining, %: 125
- compound: "NC(Cc1c[nH]c2ccccc12)C(=O)O (stereo not given)"
  activity remaining, %: 107
- compound: "Cn1c(=O)[nH]c2nc[nH]c2c1=O"
  activity remaining, %: 79.5
- compound: "CCCCCc1c2c(cc(O)c1C(=O)O)OC(=O)c1c(cc(OC)cc1C(=O)CCCC)O2"
  activity remaining, %: 121
- compound: "CC1(C)CC[C@@]2(C(=O)O)C(C1)C1=CCC3[C@@]4(C)CC[C@H](O)C(C)(C)C4CC[C@@]3(C)[C@]1(C)C[C@@H]2O (stereo not given in full)"
  activity remaining, %: 99.8
- compound: "CN(Cc1cnc2nc(N)nc(N)c2n1)c1ccc(C(=O)NC(CCC(=O)O)C(=O)O)cc1 (stereo not given)"
  activity remaining, %: 121
- compound: "CC(=O)Nc1ccc(S(=O)(=O)c2ccc(NC(C)=O)cc2)cc1"
  activity remaining, %: 110
- compound: "CC(C)CCCC(C)C1CCC2C3=CC[C@H]4C[C@@H](O)CC[C@]4(C)C3CC[C@@]21C (stereo not given in full)"
  activity remaining, %: 114
- compound: "C[C@]12C=CC(=O)C=C1CCC1C3C[C@@H](O)[C@](O)(C(=O)CO)[C@@]3(C)C[C@H](O)[C@@]12F (stereo not given in full)"
  activity remaining, %: 125
- compound: "NCC[C@@H](O)C(=O)N[C@@H]1C[C@H](N)[C@@H](O[C@H]2O[C@H](CN)[C@@H](O)[C@H](O)[C@H]2O)[C@H](O)[C@H]1O[C@H]1O[C@H](CO)[C@@H](O)[C@H](N)C1O (stereo not given in full)"
  activity remaining, %: 113
- compound: "CN1Cc2c(N)cccc2C(c2ccccc2)C1 (stereo not given)"
  activity remaining, %: 119
- compound: "CC12CCC3C(=CCc4cc(O)ccc43)C1CCC2=O (stereo not given)"
  activity remaining, %: 108
- compound: "Nc1ncn[nH]1"
  activity remaining, %: 92.7
- compound: "CC1(C)O[C@@H]2CC3C4C[C@H](F)C5=CC(=O)CC[C@]5(C)C4[C@@H](O)C[C@]3(C)[C@]2(C(=O)CO)O1 (stereo not given in full)"
  activity remaining, %: 118
